Ref: patent US12180207B2

# target: FGFR3 (SEQ ID NO: 5, amino acids 449-759) (Homo sapiens (Human), UniProt P22607)
# Sequence (P22607 449-759): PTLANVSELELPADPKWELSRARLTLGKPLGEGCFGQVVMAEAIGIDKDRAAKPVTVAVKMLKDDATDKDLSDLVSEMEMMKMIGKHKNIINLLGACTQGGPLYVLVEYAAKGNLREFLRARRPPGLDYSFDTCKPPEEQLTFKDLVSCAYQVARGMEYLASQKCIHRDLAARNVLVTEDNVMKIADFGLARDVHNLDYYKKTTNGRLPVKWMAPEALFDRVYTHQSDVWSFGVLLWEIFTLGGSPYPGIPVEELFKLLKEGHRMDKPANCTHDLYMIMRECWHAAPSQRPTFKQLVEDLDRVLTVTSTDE
# test-method-notes: LC/MS FGFR3 kobs assay (covalent protein modification)
# Type: binding
# study-conditions: 500 nM FGFR3, 3 μM compound
measured-parameter: FGFR3 Enz kobs (min⁻¹)

Answered cases to consult:
[[record]]
compound = "C=CC(=O)Nc1ccc(C(=O)N2CC[C@H](n3cc(-c4cc(OC)c5c(C#N)cnn5c4)cn3)C2)c(OC)c1"
quantitative_readout = 0.01649

[[record]]
compound = "COc1cc(-c2cnn(C3CCN(C(=O)C4(F)CN(C(=O)/C=C/CN(C)C)C4)CC3)c2C)cn2ncc(C#N)c12"
quantitative_readout = 0.1578


1: C=CC(=O)Nc1cccc(C(=O)N2CC[C@H](n3cc(-c4cc(OC)c5c(C#N)cnn5c4)cn3)C2)c1
2: C=CC(=O)N1CC(C)(CN2CC(n3ncc(-c4cc(OC)c5c(C#N)cnn5c4)c3C)C2)C1
Prompt line: Short answer wanted: higher FGFR3 Enz kobs, 1 or 2 ? Provide the label of your selected option as the answer.
Response line: 2

I: C=CC(=O)N[C@H]1C[C@@H](C(=O)N2CC[C@@H](n3cc(-c4cc(OC)c5c(C#N)cnn5c4)cn3)C2)C1
II: COc1cc(-c2cnn(C3CCN(CC4CN(C(=O)/C=C/CN(C)C)C4)CC3)c2)cn2ncc(C#N)c12
Prompt line: Short answer wanted: higher FGFR3 Enz kobs, I or II ? Provide the label of your selected option as the answer.
Response line: II

P: C=CS(=O)(=O)Nc1cccc(C(=O)N2CCC(n3cc(-c4cc(OC)c5c(C#N)cnn5c4)cn3)CC2)c1
Q: C=CC(=O)N1CC(O)(C(=O)N2CCC(n3ncc(-c4cc(OC)c5c(Cl)cnn5c4)c3C)CC2)C1
Prompt line: Between P and Q , which one has the lower reported FGFR3 Enz kobs value? Provide the label of your selected option as the answer.
Response line: Q

I: C=CC(=O)NC1CCN(C(=O)c2ccc(-c3cc(OC)c4c(C#N)cnn4c3)cc2)CC1
II: COc1cc(-c2cnn(C3CCN(CC4(OC)CN(C(=O)/C=C/CN(C)C)C4)CC3)c2C)cn2ncc(C#N)c12
Prompt line: Between I and II , which one has the lower reported FGFR3 Enz kobs value? Provide the label of your selected option as the answer.
Response line: I
(I: 0.0002 min⁻¹, II: 0.0605 min⁻¹)

----------
# target: recombinant human FGFR1 catalytic domain (amino acids 308-731) (Homo sapiens (Human))
# Sequence (P11362 other isoform, or with tags, fused parts or gaps): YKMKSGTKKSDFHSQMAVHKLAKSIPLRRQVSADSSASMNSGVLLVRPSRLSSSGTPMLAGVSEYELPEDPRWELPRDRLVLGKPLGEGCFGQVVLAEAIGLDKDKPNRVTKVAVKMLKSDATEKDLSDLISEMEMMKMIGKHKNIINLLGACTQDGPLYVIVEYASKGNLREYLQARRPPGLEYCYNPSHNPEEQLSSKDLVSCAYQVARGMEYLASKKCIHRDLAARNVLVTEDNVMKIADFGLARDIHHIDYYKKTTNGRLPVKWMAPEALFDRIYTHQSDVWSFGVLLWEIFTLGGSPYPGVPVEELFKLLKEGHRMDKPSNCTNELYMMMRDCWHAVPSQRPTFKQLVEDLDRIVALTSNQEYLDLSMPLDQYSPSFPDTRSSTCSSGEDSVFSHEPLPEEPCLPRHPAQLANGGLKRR
# test-method-notes: FGFR1 enzyme activity assay (LanthaScreen TR-FRET)
# study-conditions: 20 min incubation at 22° C., average of multiple determinations if made, read-out: FGFR1 Enz FRET IC50
pIC50: −log10 of the molar value.
measured-parameter: pIC50

[[record]]
compound = "COc1cc(-c2cnn(C3CCN(CC4CN(C(=O)/C=C/CN(C)C)C4)CC3)c2)cn2ncc(C#N)c12 [Example 146]"
quantitative_readout = 7.92

[[record]]
compound = "C=CC(=O)N1CC(C(=O)N2CCC(n3cc(-c4cc(C(C)C)c5c(C#N)cnn5c4)cn3)CC2)C1 [Example 129]"
quantitative_readout = 7.85

[[record]]
compound = "C=CC(=O)NC1CCN(C(=O)c2ccc(-c3cc(OC)c4c(C#N)cnn4c3)cc2)CC1 [Example 165]"
quantitative_readout = 7.21

[[record]]
compound = "C=CC(=O)N1CC(C(=O)N2CC3CCC(C2)N3c2ccc(-c3cc(OC)c4c(C#N)cnn4c3)cn2)C1 [Example 51]"
quantitative_readout = 7.47

[[record]]
compound = "C=CC(=O)N1C[C@H]2CN(C(=O)N3CCC(n4cc(-c5cc(OC)c6c(C#N)cnn6c5)cn4)CC3)C[C@H]21 [Example 7]"
quantitative_readout = 7.74


P: CC#CC(=O)N1CC(C(=O)N2CCC(n3cc(-c4cc(OC)c5c(C#N)cnn5c4)cn3)CC2)C1 [Example 139]
Q: C=CC(=O)N1CC(C(=O)N2CCN(c3cnc(-c4cc(OC)c5c(C#N)cnn5c4)cn3)CC2)C1 [Example 116]
Prompt line: Short answer wanted: higher pIC50, P or Q ? Provide the label of your selected option as the answer.
Response line: P

A: C=CC(=O)N1CC2(CCN(C(=O)N3CCC(n4cc(-c5cc(OC)c6c(C#N)cnn6c5)cn4)CC3)C2)C1 [Example 8]
B: C=CC(=O)N1CCC2(CC1)CC(C(=O)N1CCC(n3cc(-c4cc(OC)c5c(C#N)cnn5c4)cn3)CC1)C2 [Example 48]
C: C=CC(=O)Nc1ccc(CN2CCC(n3cc(-c4cc(OC)c5c(C#N)cnn5c4)cn3)CC2)cc1 [Example 9]
Prompt line: Place the items in sequence of falling pIC50. Labels, ranked as asked.
Response line: B, A, C
(B: 7.96, A: 7.74, C: 7.49)

P: COc1cc(-c2cnn(C3CCN(C(=O)C4CN(C(=O)/C=C/CN5CCOCC5)C4)CC3)c2)cn2ncc(C#N)c12 [Example 184]
Q: C=CC(=O)N1CC(C(=O)N2CCC(n3cc(-c4cc(OC)c5c(Cl)cnn5c4)cn3)CC2)C1 [Example 122]
Prompt line: Short answer wanted: higher pIC50, P or Q ? Provide the label of your selected option as the answer.
Response line: P

P: C=CC(=O)N1CCC(C(=O)N2CCN(c3ccc(-c4cc(OC)c5c(C#N)cnn5c4)cn3)CC2)CC1 [Example 109]
Q: C=CC(=O)N1CC(F)(C(=O)N2CCN(c3ccc(-c4cc(OC)c5c(C#N)cnn5c4)cn3)CC2)C1 [Example 112]
Prompt line: Between P and Q , which one has the lower reported pIC50 value? Provide the label of your selected option as the answer.
Response line: Q
